Where these numbers come from: patent EP4793287A1

- ASSAY_TARGET: T1, CD47 on CHOK1-CD47 cells (UniProt Q08722 19-323)
- T1 construct: whole, on cells; The rabbits were immunized with human CD47, so human is likely
- T1 sequence (Q08722 19-323 limits assumed): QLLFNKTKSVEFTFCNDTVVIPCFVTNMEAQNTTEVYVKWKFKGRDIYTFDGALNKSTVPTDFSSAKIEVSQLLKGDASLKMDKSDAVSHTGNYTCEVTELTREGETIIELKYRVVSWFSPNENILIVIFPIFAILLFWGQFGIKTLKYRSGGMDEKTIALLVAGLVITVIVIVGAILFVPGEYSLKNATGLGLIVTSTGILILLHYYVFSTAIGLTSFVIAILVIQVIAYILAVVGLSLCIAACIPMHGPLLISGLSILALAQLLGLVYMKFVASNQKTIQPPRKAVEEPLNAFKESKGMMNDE
- EXPERIMENTAL_DETAILS: flow cytometry on CHOK1-CD47 cells
METRIC_NAME: EC50 (nM)

[[record]]
binder = "70H1-VH1VL1 (antibody, V domains shown, Humanized 70H1) VH: QVQLVESGGGVVQPGGSLRLSCAASGFTFSSGYDMCWVRQAPGKGLEWVSCIYTRSSGGTYYASWAKGRFTISRDNSKNTLYLQMNSLRAEDTAVYYCAKGRSSYRLNLWGQGTLVTVSS VL: DIQMTQSPSTLSASVGDRVTITCQASQSISNELSWYQQKPGKAPKLLIYRASTLESGVPSRFSGSGSGTEFTLTISSLQPDDFATYYCQSTFYGDYGNAFGGGTKVEIK"
metric_name = "EC50"
scale_unit = "nM"
value_observed = 1.04

[[record]]
binder = "70H1-VH1VL3 (antibody, V domains shown, Humanized 70H1) VH: QVQLVESGGGVVQPGGSLRLSCAASGFTFSSGYDMCWVRQAPGKGLEWVSCIYTRSSGGTYYASWAKGRFTISRDNSKNTLYLQMNSLRAEDTAVYYCAKGRSSYRLNLWGQGTLVTVSS VL: DIQMTQSPSTLSASVGDRVTIKCQASQSISNELSWYQQKPGKPPKLLIYRASTLESGVSSRFSGSGSGTEFTLTISSLQPDDFATYYCQSTFYGDYGNAFGGGTKVEIK"
metric_name = "EC50"
scale_unit = "nM"
value_observed = 1.76

[[record]]
binder = "70H1 (antibody, V domains shown, Rabbit-derived variable regions; also called 70H1.IgG1; 70H1 antibody) VH: QQQLEESGGGLVKPEGSLTLTCTASGFSFSSGYDMCWVRQAPGRGLEWIACIYTRSSGGTYYASWAKGRFTISKTSSTVDLRMTSLTAADTATYFCAGGRSSYRLNLWGQGALVTVSS VL: DVVMTQTPSPVEAAVGGTVTIKCQASQSISNELSWYQQKPGQPPKLLIYRASTLESGVSSRFKGSGSGTEFTLTISDLECADAATYYCQSTFYGDYGNAFGGGTEVVVK"
metric_name = "EC50"
scale_unit = "nM"
value_observed = 0.35

